For each of the molecules below, state its IC50.
# Test system: Leishmania donovani
# Assay: Antileishmanial activity against promastigote stage of Leishmania donovani after 72 hrs by Alamar blue assay
# Type: functional, organism-based
Give bare numbers, in µg/mL.

Need IC50 of `O=c1c(O)cccn1Cc1ccccc1` , thanks.
9.3

Need IC50 of `N#Cc1ccc(-c2ccc(Cn3cccc(O)c3=O)cc2)cc1` , thanks.
4.6

Need IC50 of `Cc1ccc(-c2ccc(Cn3cccc(O)c3=O)cc2)cc1` , thanks.
6

For each of the items listed, what is its IC50?
1. CN(C)c1ccc(-c2ccc(Cn3cccc(O)c3=S)cc2)cc1
2. N=C(N)c1ccc(OCCCCCOc2ccc(C(=N)N)cc2)cc1
3. N#Cc1cccc(-c2ccc(Cn3cccc(O)c3=O)cc2)c1
4. N#Cc1ccc(-c2ccc(Cn3cccc(O)c3=S)cc2)cc1
5. O=c1c(O)cccn1Cc1ccc(-c2ccccc2)cc1
6. Cc1cccc(-c2ccc(Cn3cccc(O)c3=S)cc2)c1

1. 0.2
2. 0.6
3. 9
4. 0.7
5. 6.8
6. 0.3

For each of the items listed, what is its IC50?
1. CN1CCc2c(c3ccccc3n2Cc2ccc(C(=O)NO)cc2)C1
2. CN(C)c1ccc(-n2cc(Cn3cccc(O)c3=O)nn2)cc1
3. CN(C)c1ccc(-n2cc(Cn3cccc(O)c3=S)nn2)cc1
4. N#Cc1cccc(-c2ccc(Cn3cccc(O)c3=S)cc2)c1
5. CN(C)c1ccc(-c2ccc(Cn3cccc(O)c3=S)cc2)cn1

4.4
14.5
1.3
0.4
2.3
